STUDY SYSTEM: Vitamin D3 receptor (Homo sapiens) (UniProt P11473)
Sequence (P11473 whole entry, looked up): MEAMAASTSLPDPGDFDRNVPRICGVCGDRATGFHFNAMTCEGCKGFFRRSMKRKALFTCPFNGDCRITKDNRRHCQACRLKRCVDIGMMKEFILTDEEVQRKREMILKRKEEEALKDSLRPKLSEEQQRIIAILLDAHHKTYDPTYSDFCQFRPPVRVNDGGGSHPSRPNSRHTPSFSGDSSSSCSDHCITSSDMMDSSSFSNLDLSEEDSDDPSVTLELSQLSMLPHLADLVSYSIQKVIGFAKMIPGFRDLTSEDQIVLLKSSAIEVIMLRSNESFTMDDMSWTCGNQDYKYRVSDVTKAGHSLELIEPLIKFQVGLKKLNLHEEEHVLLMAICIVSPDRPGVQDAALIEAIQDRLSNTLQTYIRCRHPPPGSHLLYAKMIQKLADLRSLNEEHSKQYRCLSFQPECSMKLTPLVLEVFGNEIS
ASSAY COMMENT: Inhibitors of the vitamin D receptor (VDR): qHTS; also: % is scaled to controls: 0 for no effect and ±100 for the full control effect
TEST PARAMETERS: VDR-SRC2-3 peptide fluorescence polarization, 2 h; hits give low values
About 3,700 (0.93%) of roughly 400,000 compounds were called active. Inconclusive results (about 3%) are left out. Many of the other results were omitted from the sample, so actives are more common in it than they were.
MEASURED ENDPOINT: max response, negative = inhibition (%)

[
  {
    "SMILES DATA": "CC(=O)N1CCN(C(=O)c2cc(-c3ccc(C)o3)nc3ccccc23)CC1",
    "READING": -3.82
  },
  {
    "SMILES DATA": "O=C(COC(=O)/C=C/c1cn(-c2ccccc2)nc1-c1cccnc1)Nc1ccc(Cl)cc1Cl",
    "READING": -8.09
  },
  {
    "SMILES DATA": "COc1ccc(NC(=O)CCCc2nnc3n(CCC(C)C)c(=O)c4sccc4n23)c(OC)c1",
    "READING": -1.71
  }
]

* * *

STUDY SYSTEM: Vitamin D3 receptor (Homo sapiens) (UniProt P11473)
ASSAY COMMENT: Inhibitors of the vitamin D receptor (VDR): qHTS; also: % is scaled to controls: 0 for no effect and ±100 for the full control effect
TEST PARAMETERS: VDR-SRC2-3 peptide fluorescence polarization, 2 h; hits give low values
Description: The vitamin D receptor (VDR) is a ligand-activated transcription factor and is partially responsible for the regulation of the endocrine system. […] In a collaboration between the University of Wisconsin, Milwaukee and the NIH Chemical Genomics Center (NCGC) a HTS-compatible enzymatic assay was developed. The assay uses fluorescence polarization as its read-out to measure the inhibition between VDR and coregulator peptide SRC2-3 exerted by small molecules. […]
Out of some 400,000 compounds screened, about 3,700 (0.93%) were called active. Not shown: some 3% with an inconclusive outcome. This excerpt belongs to a sample that is enriched for actives.
MEASURED ENDPOINT: max response, negative = inhibition (%)

[
  {
    "COMPOUND": "CCOC(=O)C1CCN(C(=O)Nc2ccc(Cl)cc2)CC1",
    "STUDY SYSTEM": "Vitamin D3 receptor (Homo sapiens) (UniProt P11473)",
    "READING": 6.67
  },
  {
    "COMPOUND": "CCC(=O)N1N=C(c2ccc(OC)cc2)CC1c1cn(-c2ccccc2)nc1-c1cccs1 (configuration not stated)",
    "STUDY SYSTEM": "Vitamin D3 receptor (Homo sapiens) (UniProt P11473)",
    "READING": -4.57
  },
  {
    "COMPOUND": "Cc1c(-c2nsc(NC(=O)c3cccc(Cl)c3)n2)nnn1-c1ccccc1C(F)(F)F",
    "STUDY SYSTEM": "Vitamin D3 receptor (Homo sapiens) (UniProt P11473)",
    "READING": 1.99
  },
  {
    "COMPOUND": "CCOCCCNC(=O)c1c(NC(=O)Cc2coc3ccc(C)cc23)sc2c1CCC2",
    "STUDY SYSTEM": "Vitamin D3 receptor (Homo sapiens) (UniProt P11473)",
    "READING": 8.22
  },
  {
    "COMPOUND": "COc1ccc(C2(C#N)CCC(C(=O)O)CC2)cc1OC1CCCC1 (configuration not stated)",
    "STUDY SYSTEM": "Vitamin D3 receptor (Homo sapiens) (UniProt P11473)",
    "READING": 5.35
  },
  {
    "COMPOUND": "CC(C)(C)C(=O)CSc1nc2ccccc2o1",
    "STUDY SYSTEM": "Vitamin D3 receptor (Homo sapiens) (UniProt P11473)",
    "READING": -1.66
  },
  {
    "COMPOUND": "Cc1nc2cnc(N3CCNCC3)nc2n(CCc2ccccc2)c1=O",
    "STUDY SYSTEM": "Vitamin D3 receptor (Homo sapiens) (UniProt P11473)",
    "READING": -10.9
  },
  {
    "COMPOUND": "C=C(C)C1CC=C(CO)CC1 (configuration not stated)",
    "STUDY SYSTEM": "Vitamin D3 receptor (Homo sapiens) (UniProt P11473)",
    "READING": 1.87
  },
  {
    "COMPOUND": "O=C(CN1CCOCC1)N/N=C/c1ccc(-c2ccc(Br)cc2)o1",
    "STUDY SYSTEM": "Vitamin D3 receptor (Homo sapiens) (UniProt P11473)",
    "READING": 13.8
  },
  {
    "COMPOUND": "Cc1oc2ncnc(N3CCOCC3)c2c1C(=O)NCCc1ccccc1",
    "STUDY SYSTEM": "Vitamin D3 receptor (Homo sapiens) (UniProt P11473)",
    "READING": 9.03
  },
  {
    "COMPOUND": "COc1cccc(-c2n[nH]c3c2C(c2cccc(O)c2)N(C)C3=O)c1 (configuration not stated)",
    "STUDY SYSTEM": "Vitamin D3 receptor (Homo sapiens) (UniProt P11473)",
    "READING": 9.73
  },
  {
    "COMPOUND": "CCOC(=O)N1CCc2c(sc(NCc3cccc(F)c3)c2C(=O)Nc2ccccc2OCC)C1",
    "STUDY SYSTEM": "Vitamin D3 receptor (Homo sapiens) (UniProt P11473)",
    "READING": -13.2
  },
  {
    "COMPOUND": "CCOC(=O)c1ccccc1N1C(=O)C2Sc3[nH]c(=O)sc3C(/C=C/c3ccccc3)C2C1=O (configuration not stated)",
    "STUDY SYSTEM": "Vitamin D3 receptor (Homo sapiens) (UniProt P11473)",
    "READING": -26.2
  },
  {
    "COMPOUND": "CC(=O)OC1=C(C(C)=O)N(Cc2ccccc2)S(=O)(=O)c2ccccc21",
    "STUDY SYSTEM": "Vitamin D3 receptor (Homo sapiens) (UniProt P11473)",
    "READING": 8.35
  },
  {
    "COMPOUND": "COc1cc(C(=O)Nc2ccc(OCc3cc(=O)n4ccc(C)cc4n3)cc2)cc(OC)c1OC",
    "STUDY SYSTEM": "Vitamin D3 receptor (Homo sapiens) (UniProt P11473)",
    "READING": 15.3
  },
  {
    "COMPOUND": "O=C(Nc1ccc(N2CCOCC2)cc1)c1ccc(-c2ccccc2[N+](=O)[O-])o1",
    "STUDY SYSTEM": "Vitamin D3 receptor (Homo sapiens) (UniProt P11473)",
    "READING": -16.6
  },
  {
    "COMPOUND": "C#CC(C)(CC)NC(=O)Cn1nnc(-c2ccc(OCc3c(F)cccc3Cl)cc2)n1 (configuration not stated)",
    "STUDY SYSTEM": "Vitamin D3 receptor (Homo sapiens) (UniProt P11473)",
    "READING": 15.5
  },
  {
    "COMPOUND": "Cc1nnc(Sc2nc3c(c(=O)[nH]c(=O)n3C)n2Cc2ccccc2)s1",
    "STUDY SYSTEM": "Vitamin D3 receptor (Homo sapiens) (UniProt P11473)",
    "READING": -19.6
  },
  {
    "COMPOUND": "O=C(Nc1cccc2cccnc12)C(F)(F)F",
    "STUDY SYSTEM": "Vitamin D3 receptor (Homo sapiens) (UniProt P11473)",
    "READING": 3.86
  },
  {
    "COMPOUND": "CCOc1ccc2nc(N3CCCC(C(=O)Nc4cc(C)ccc4C)C3)sc2c1 (configuration not stated)",
    "STUDY SYSTEM": "Vitamin D3 receptor (Homo sapiens) (UniProt P11473)",
    "READING": 5.91
  },
  {
    "COMPOUND": "COc1ccc(NC(=O)CSc2nc3ccccc3n2CC(=O)N2CCCCC2C)cc1 (configuration not stated)",
    "STUDY SYSTEM": "Vitamin D3 receptor (Homo sapiens) (UniProt P11473)",
    "READING": -0.157
  },
  {
    "COMPOUND": "CC(C)NC(=O)N1CC[C@@]2(CCCN(C(=O)c3ccco3)C2)C1",
    "STUDY SYSTEM": "Vitamin D3 receptor (Homo sapiens) (UniProt P11473)",
    "READING": -6.63
  }
]

* * *

The compounds listed here are annotated with their max response, negative = inhibition.
STUDY SYSTEM: Vitamin D3 receptor (Homo sapiens)
ASSAY COMMENT: Inhibitors of the vitamin D receptor (VDR): qHTS; also: % is scaled to controls: 0 for no effect and ±100 for the full control effect
TEST PARAMETERS: VDR-SRC2-3 peptide fluorescence polarization, 2 h; hits give low values
In all, about 400,000 compounds went through this assay and about 3,700 (0.93%) were called active. About 3% were inconclusive and are not listed. Shown is part of a subset that was picked to be rich in actives.

[
  {
    "COMPOUND": "CCC1CN(S(=O)(=O)c2cc(-c3cc(C)no3)ccc2C)c2cc(C)ccc2O1 (stereo unspecified)",
    "STUDY SYSTEM": "Vitamin D3 receptor (Homo sapiens)",
    "MEASUREMENT UNIT": "%",
    "max response, negative = inhibition": 10.7
  },
  {
    "COMPOUND": "CCOc1ccc(N(CC)C(=O)c2cc3c(=O)oc4ccccc4c3s2)cc1",
    "STUDY SYSTEM": "Vitamin D3 receptor (Homo sapiens)",
    "MEASUREMENT UNIT": "%",
    "max response, negative = inhibition": -18
  },
  {
    "COMPOUND": "COc1cc(C(=O)N(Cc2ccc(C(C)C)cc2)C2CCS(=O)(=O)C2)cc(OC)c1OC (stereo unspecified)",
    "STUDY SYSTEM": "Vitamin D3 receptor (Homo sapiens)",
    "MEASUREMENT UNIT": "%",
    "max response, negative = inhibition": -4.09
  },
  {
    "COMPOUND": "CCOC(=O)c1cc2c(=O)n3ccccc3nc2n(CC2CCCO2)c1=NC(=O)c1ccccc1F (stereo unspecified)",
    "STUDY SYSTEM": "Vitamin D3 receptor (Homo sapiens)",
    "MEASUREMENT UNIT": "%",
    "max response, negative = inhibition": -16
  },
  {
    "COMPOUND": "COc1ccc(C(=O)c2oc3ccc(Br)cc3c2NC(C)=O)cc1",
    "STUDY SYSTEM": "Vitamin D3 receptor (Homo sapiens)",
    "MEASUREMENT UNIT": "%",
    "max response, negative = inhibition": -3.63
  },
  {
    "COMPOUND": "O=C(NNC1CC(=O)N(c2cccc(Cl)c2)C1=O)c1cccnc1 (stereo unspecified)",
    "STUDY SYSTEM": "Vitamin D3 receptor (Homo sapiens)",
    "MEASUREMENT UNIT": "%",
    "max response, negative = inhibition": 4.73
  },
  {
    "COMPOUND": "NCCCNCCCCN(CCCN)/[N+]([O-])=N/O",
    "STUDY SYSTEM": "Vitamin D3 receptor (Homo sapiens)",
    "MEASUREMENT UNIT": "%",
    "max response, negative = inhibition": 8.85
  },
  {
    "COMPOUND": "COc1ccc(CNc2nc(-c3ccc(Cl)cc3)nn2S(=O)(=O)c2ccc(C)cc2)cc1",
    "STUDY SYSTEM": "Vitamin D3 receptor (Homo sapiens)",
    "MEASUREMENT UNIT": "%",
    "max response, negative = inhibition": -0.454
  },
  {
    "COMPOUND": "O=C1N=C(N2CCc3ccccc3C2)S/C1=C\\c1ccc(O)cc1",
    "STUDY SYSTEM": "Vitamin D3 receptor (Homo sapiens)",
    "MEASUREMENT UNIT": "%",
    "max response, negative = inhibition": 17.3
  },
  {
    "COMPOUND": "COc1ccc(S(=O)(=O)Nc2ccccc2C(=O)N2CCCC2)cc1C",
    "STUDY SYSTEM": "Vitamin D3 receptor (Homo sapiens)",
    "MEASUREMENT UNIT": "%",
    "max response, negative = inhibition": 4.61
  },
  {
    "COMPOUND": "COc1cc2c(cc1OC)[C@@H](Cc1cc(OC)c(OC)c(OC)c1)[N+](C)(CCCOC(=O)CC/C=C/CCC(=O)OCCC[N+]1(C)CCc3cc(OC)c(OC)cc3[C@H]1Cc1cc(OC)c(OC)c(OC)c1)CC2 (stereo partly specified)",
    "STUDY SYSTEM": "Vitamin D3 receptor (Homo sapiens)",
    "MEASUREMENT UNIT": "%",
    "max response, negative = inhibition": 3.39
  }
]
